assay.remarks: Emission (fluorescence) spectra of cyanine fluorophores in different solvents
condition: methanol
Each entry below lists one item and its recorded emission maximum (λmax, emiss) value.
Write the numeric value and append its unit.

Solved cases (4 shown):
Q: Value lookup for emission maximum (λmax, emiss); key = CC1(C)C(/C=C/C2=C3Sc4ccccc4SC4=C3C(CC2)CC/C4=C\C=C2\N(CCCCS(=O)(=O)[O-])c3ccc(S(=O)(=O)[O-])cc3C2(C)C)=[N+](CCCCS(=O)(=O)[O-])c2ccc(S(=O)(=O)[O-])cc21.[Na+].[Na+].[Na+] (centres unmarked)
Result: 960 nm

Q: Which emission maximum (λmax, emiss) is listed for CN1/C(=C/C=C2\CCC3CCC(/C=C/C4=[N+](C)c5ccccc5C4(C)C)=C4C3=C2c2ccccc24)C(C)(C)c2ccccc21 (centres unmarked) ?
Result: 1110 nm

Q: Given the compound CC1(C)C(/C=C/C2=C3Oc4ccccc4OC4=C3C(CC2)CC/C4=C\C=C2\N(CCCCS(=O)(=O)[O-])c3ccccc3C2(C)C)=[N+](CCCCS(=O)(=O)[O-])c2ccccc21.[Na+] (centres unmarked) , what is its reported emission maximum (λmax, emiss)?
Result: 890 nm

Q: Quick check: emission maximum (λmax, emiss) of CN1/C(=C/C=C2\CCC3CCC(/C=C/C4=[N+](C)c5ccccc5C4(C)C)=C(Cl)C3=C2Cl)C(C)(C)c2ccccc21 (centres unmarked) ?
Result: 960 nm

More entries:
Q: Give the measured emission maximum (λmax, emiss) of CC1(C)C(/C=C/C2=C3Oc4ccc(C(=O)O)cc4OC4=C3C(CC2)CC/C4=C\C=C2\N(CCCCS(=O)(=O)[O-])c3ccc(S(=O)(=O)[O-])cc3C2(C)C)=[N+](CCCCS(=O)(=O)[O-])c2ccc(S(=O)(=O)[O-])cc21.[Na+].[Na+].[Na+] (centres unmarked) .
Result: 896 nm

----------
assay.remarks: Emission (fluorescence) spectra of cyanine fluorophores in different solvents
condition: methanol
Here, each record is paired with measured emission maximum (λmax, emiss) data.
# value in nm; strip the unit string

Use these answered entries as a reference point.
Q: Fill blank: measured emission maximum (λmax, emiss) of the compound CC1(C)C(/C=C/C2=C3C4=C(/C(=C/C=C5/N(CCCCS(=O)(=O)O)c6ccc(S(=O)(=O)[O-])cc6C5(C)C)CCC4CC2)c2cc(C(=O)O)ccc23)=[N+](CCCCS(=O)(=O)O)c2ccc(S(=O)(=O)O)cc21.N.N.N (stereo not drawn) is ____.
Result: 1103

Q: Requested read-out: emission maximum (λmax, emiss). Entry: CC1(C)C(/C=C/C2=C3Oc4ccc(C(=O)N(CCCS(=O)(=O)O)CCC(=O)O)cc4OC4=C3C(CC2)CC/C4=C\C=C2\N(CCCCS(=O)(=O)O)c3ccc(S(=O)(=O)[O-])cc3C2(C)C)=[N+](CCCCS(=O)(=O)O)c2ccc(S(=O)(=O)O)cc21.N.N.N.N (stereo not drawn)
Result: 896

# input for lookup
Q: Quick one: emission maximum (λmax, emiss) of CC1(C)C(/C=C/C2=C3Oc4ccc(CCC(=O)O)cc4OC4=C3C(CC2)CC/C4=C\C=C2\N(CCCCS(=O)(=O)[O-])c3ccc(S(=O)(=O)[O-])cc3C2(C)C)=[N+](CCCCS(=O)(=O)[O-])c2ccc(S(=O)(=O)[O-])cc21.[Na+].[Na+].[Na+] (stereo not drawn) ?
Result: 890

----------
assay.remarks: Absorbance spectra of cyanine fluorophores in different solvents (absorbance maximum, molar absorptivity)
condition: 10% (v/v) FBS in pH 7.4 PBS
value.kind: molar absorptivity (ε)

Here is how some compounds turned out for molar absorptivity (ε).
Q: Record request: molar absorptivity (ε) value, item CC1(C)C(/C=C/C2=C3Oc4ccccc4OC4=C3C(CC2)CC/C4=C\C=C2\N(CCCCS(=O)(=O)[O-])c3ccccc3C2(C)C)=[N+](CCCCS(=O)(=O)[O-])c2ccccc21.[Na+] (stereo not drawn) [BisSO3-NIR-890]
Result: 187,000 M^−1cm^−1

Q: Sample CC1(C)C(/C=C/C2=C3Oc4ccc(C(=O)N(CCCS(=O)(=O)O)CCC(=O)O)cc4OC4=C3C(CC2)CC/C4=C\C=C2\N(CCCCS(=O)(=O)O)c3ccc(S(=O)(=O)[O-])cc3C2(C)C)=[N+](CCCCS(=O)(=O)O)c2ccc(S(=O)(=O)O)cc21.N.N.N.N (stereo not drawn) [Compound 10] — what was its molar absorptivity (ε)?
Result: 137,000 M^−1cm^−1

Q: GET /values?readout=molar absorptivity (ε)&item= CC1(C)C(/C=C/C2=C3Sc4ccccc4SC4=C3C(CC2)CC/C4=C\C=C2\N(CCCCS(=O)(=O)[O-])c3ccc(S(=O)(=O)[O-])cc3C2(C)C)=[N+](CCCCS(=O)(=O)[O-])c2ccc(S(=O)(=O)[O-])cc21.[Na+].[Na+].[Na+] (stereo not drawn) [NIR-950]
Result: 128,000 M^−1cm^−1

Q: Returns the measured molar absorptivity (ε) for the input compound. Input: CC1(C)C(/C=C/C2=C3Oc4ccc(CCC(=O)O)cc4OC4=C3C(CC2)CC/C4=C\C=C2\N(CCCCS(=O)(=O)[O-])c3ccc(S(=O)(=O)[O-])cc3C2(C)C)=[N+](CCCCS(=O)(=O)[O-])c2ccc(S(=O)(=O)[O-])cc21.[Na+].[Na+].[Na+] (stereo not drawn) [NIR-900-Et]
Result: 148,000 M^−1cm^−1

Q: Name the recorded molar absorptivity (ε) for CC1(C)C(/C=C/C2=C3C4=C(/C(=C/C=C5/N(CCCCS(=O)(=O)O)c6ccc(S(=O)(=O)[O-])cc6C5(C)C)CCC4CC2)c2cc(C(=O)O)ccc23)=[N+](CCCCS(=O)(=O)O)c2ccc(S(=O)(=O)O)cc21.N.N.N (stereo not drawn) [Compound 8] .
Result: 99,000 M^−1cm^−1

# evaluate next
Q: I am curious: what molar absorptivity (ε) value has been reported for CC1(C)C(/C=C/C2=C3Oc4ccc(C(=O)O)cc4OC4=C3C(CC2)CC/C4=C\C=C2\N(CCCCS(=O)(=O)[O-])c3ccc(S(=O)(=O)[O-])cc3C2(C)C)=[N+](CCCCS(=O)(=O)[O-])c2ccc(S(=O)(=O)[O-])cc21.[Na+].[Na+].[Na+] (stereo not drawn) [Compound 6] ?
Result: 192,000 M^−1cm^−1

----------
assay.remarks: Absorbance spectra of cyanine fluorophores in different solvents (absorbance maximum, molar absorptivity)
condition: pH 7.4 PBS; at wavelength of maximum absorbance
value.kind: molar absorptivity (ε)

Q: What does the data say about its molar absorptivity (ε)? Entry: CC1(C)C(/C=C/C2=C3Oc4ccc(C(=O)N(CCCS(=O)(=O)O)CCC(=O)O)cc4OC4=C3C(CC2)CC/C4=C\C=C2\N(CCCCS(=O)(=O)O)c3ccc(S(=O)(=O)[O-])cc3C2(C)C)=[N+](CCCCS(=O)(=O)O)c2ccc(S(=O)(=O)O)cc21.N.N.N.N (centres unmarked)
Result: 145,000 M^−1cm^−1

Q: Entry CC1(C)C(/C=C/C2=C3C4=C(/C(=C/C=C5/N(CCCCS(=O)(=O)O)c6ccc(S(=O)(=O)[O-])cc6C5(C)C)CCC4CC2)c2cc(C(=O)O)ccc23)=[N+](CCCCS(=O)(=O)O)c2ccc(S(=O)(=O)O)cc21.N.N.N (centres unmarked) : reported molar absorptivity (ε) = ?
Result: 70,000 M^−1cm^−1

Q: Entry under review: CC1(C)C(/C=C/C2=C3Sc4ccccc4SC4=C3C(CC2)CC/C4=C\C=C2\N(CCCCS(=O)(=O)[O-])c3ccc(S(=O)(=O)[O-])cc3C2(C)C)=[N+](CCCCS(=O)(=O)[O-])c2ccc(S(=O)(=O)[O-])cc21.[Na+].[Na+].[Na+] (centres unmarked) . Reported molar absorptivity (ε)?
Result: 79,000 M^−1cm^−1

Q: Look at this compound and give its reported molar absorptivity (ε). CC1(C)C(/C=C/C2=C3Oc4ccc(CCC(=O)O)cc4OC4=C3C(CC2)CC/C4=C\C=C2\N(CCCCS(=O)(=O)[O-])c3ccc(S(=O)(=O)[O-])cc3C2(C)C)=[N+](CCCCS(=O)(=O)[O-])c2ccc(S(=O)(=O)[O-])cc21.[Na+].[Na+].[Na+] (centres unmarked)
Result: 172,000 M^−1cm^−1

--- query ---
Q: Can you share its molar absorptivity (ε)? I mean this compound: CC1(C)C(/C=C/C2=C3Oc4ccc(C(=O)O)cc4OC4=C3C(CC2)CC/C4=C\C=C2\N(CCCCS(=O)(=O)[O-])c3ccc(S(=O)(=O)[O-])cc3C2(C)C)=[N+](CCCCS(=O)(=O)[O-])c2ccc(S(=O)(=O)[O-])cc21.[Na+].[Na+].[Na+] (centres unmarked)
Result: 191,000 M^−1cm^−1

----------
assay.remarks: Absorbance spectra of cyanine fluorophores in different solvents (absorbance maximum, molar absorptivity)
condition: methanol
Item-by-item account of molar absorptivity (ε)

Q: For the molecule shown here, CC1(C)C(/C=C/C2=C3Sc4ccccc4SC4=C3C(CC2)CC/C4=C\C=C2\N(CCCCS(=O)(=O)[O-])c3ccc(S(=O)(=O)[O-])cc3C2(C)C)=[N+](CCCCS(=O)(=O)[O-])c2ccc(S(=O)(=O)[O-])cc21.[Na+].[Na+].[Na+] (stereo not shown) [NIR-950] , give the reported molar absorptivity (ε).
Result: 193,000 M^−1cm^−1

Q: Query: molar absorptivity (ε); subject: CC1(C)C(/C=C/C2=C3Oc4ccc(CCC(=O)O)cc4OC4=C3C(CC2)CC/C4=C\C=C2\N(CCCCS(=O)(=O)[O-])c3ccc(S(=O)(=O)[O-])cc3C2(C)C)=[N+](CCCCS(=O)(=O)[O-])c2ccc(S(=O)(=O)[O-])cc21.[Na+].[Na+].[Na+] (stereo not shown) [NIR-900-Et]
Result: 253,000 M^−1cm^−1

Q: Need molar absorptivity (ε) of CN1/C(=C/C=C2\CCC3CCC(/C=C/C4=[N+](C)c5ccccc5C4(C)C)=C(Cl)C3=C2Cl)C(C)(C)c2ccccc21 (stereo not shown) [N-methyl-NIR-990] , thanks.
Result: 46,886 M^−1cm^−1

Q: What does the data say about its molar absorptivity (ε)? Entry: CC1(C)C(/C=C/C2=C3C4=C(/C(=C/C=C5/N(CCCCS(=O)(=O)O)c6ccc(S(=O)(=O)[O-])cc6C5(C)C)CCC4CC2)c2cc(C(=O)O)ccc23)=[N+](CCCCS(=O)(=O)O)c2ccc(S(=O)(=O)O)cc21.N.N.N (stereo not shown) [Compound 8]
Result: 117,000 M^−1cm^−1

Q: Return reported molar absorptivity (ε); argument: CC1(C)C(/C=C/C2=C3Oc4ccc(C(=O)N(CCCS(=O)(=O)O)CCC(=O)O)cc4OC4=C3C(CC2)CC/C4=C\C=C2\N(CCCCS(=O)(=O)O)c3ccc(S(=O)(=O)[O-])cc3C2(C)C)=[N+](CCCCS(=O)(=O)O)c2ccc(S(=O)(=O)O)cc21.N.N.N.N (stereo not shown) [Compound 10]
Result: 187,000 M^−1cm^−1

---
Q: Can you look up the measured molar absorptivity (ε) of CC1(C)C(/C=C/C2=C3Oc4ccc(C(=O)O)cc4OC4=C3C(CC2)CC/C4=C\C=C2\N(CCCCS(=O)(=O)[O-])c3ccc(S(=O)(=O)[O-])cc3C2(C)C)=[N+](CCCCS(=O)(=O)[O-])c2ccc(S(=O)(=O)[O-])cc21.[Na+].[Na+].[Na+] (stereo not shown) [Compound 6] for me?
Result: 208,000 M^−1cm^−1

Q: Query (molecule): CC1(C)C(/C=C/C2=C3Oc4ccccc4OC4=C3C(CC2)CC/C4=C\C=C2\N(CCCCS(=O)(=O)[O-])c3ccccc3C2(C)C)=[N+](CCCCS(=O)(=O)[O-])c2ccccc21.[Na+] (stereo not shown) [BisSO3-NIR-890] ; field requested: molar absorptivity (ε)
Result: 275,000 M^−1cm^−1
